# measured on: Histone deacetylase 1 (Homo sapiens, UniProt Q13547)
# Sequence (Q13547 whole entry): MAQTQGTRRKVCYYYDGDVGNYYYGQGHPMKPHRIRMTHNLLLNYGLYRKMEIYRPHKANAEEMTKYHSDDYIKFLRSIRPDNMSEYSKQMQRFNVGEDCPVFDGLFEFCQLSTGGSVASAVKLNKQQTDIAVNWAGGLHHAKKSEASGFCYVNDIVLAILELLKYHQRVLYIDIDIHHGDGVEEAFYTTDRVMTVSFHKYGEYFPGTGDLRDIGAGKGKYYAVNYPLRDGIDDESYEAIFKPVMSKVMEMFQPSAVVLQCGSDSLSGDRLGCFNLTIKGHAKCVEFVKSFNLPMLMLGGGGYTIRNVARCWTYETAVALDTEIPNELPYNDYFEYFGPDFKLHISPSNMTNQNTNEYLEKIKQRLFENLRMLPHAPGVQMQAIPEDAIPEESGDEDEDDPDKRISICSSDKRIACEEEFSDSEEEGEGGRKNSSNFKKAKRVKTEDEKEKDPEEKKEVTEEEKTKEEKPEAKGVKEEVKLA
# test summary: Inhibition of recombinant human full length C-terminal FLAG/His-tagged HDAC1 expressed in Sf9 insect cells using ZMAL (Z-(Ac)Lys-AMC as substrate measured after 90 mins by fluorescence plate reader analysis
metric name: IC50 (µM)

Example cases with answers are listed next.
compound	IC50 (µM)
O=C(NO)c1ccc(CNC(=O)N2CCC(N3C(=O)CC3c3cccc(Cl)c3)CC2)cc1 (racemic)	15.1
O=C(NO)c1ccc(COC(=O)N2CCC(N3CC(c4ccccc4)(c4ccccc4)C3=O)CC2)cc1	4.1

[A] O=C(NO)c1ccc(CC(=O)N2CCC(N3CC(c4ccccc4)(c4ccccc4)C3=O)CC2)cc1
[B] O=C(NO)c1ccc(NC(=O)N2CCC(N3C(=O)[C@H](c4ccccc4)[C@H]3c3ccccc3)CC2)cc1 (racemic)
Query string: Record comparison, field IC50: mark the lower of A and B . Answer by quoting the chosen item's label.
Result string: B
(B: 1.27 µM, A: 9.7 µM)
